Molecular target: Cannabinoid receptor 2 (Homo sapiens, UniProt P34972)
Sequence (P34972 whole entry): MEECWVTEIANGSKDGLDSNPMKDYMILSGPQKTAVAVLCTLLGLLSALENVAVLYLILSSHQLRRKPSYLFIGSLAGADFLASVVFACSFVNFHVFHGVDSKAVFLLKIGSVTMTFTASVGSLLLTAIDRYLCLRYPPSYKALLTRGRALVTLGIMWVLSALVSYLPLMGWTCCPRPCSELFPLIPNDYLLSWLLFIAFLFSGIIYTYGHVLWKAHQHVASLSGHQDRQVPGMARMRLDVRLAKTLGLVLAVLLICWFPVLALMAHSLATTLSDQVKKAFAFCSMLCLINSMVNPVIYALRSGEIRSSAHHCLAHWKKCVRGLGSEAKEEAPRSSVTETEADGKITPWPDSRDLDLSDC
Criterion: Ki strictly less than 80 nM. Met: Met. Not met: Not met.

CC1CCN(C(=O)c2ccc3c(c2)c2c(n3C)CN(C3CCCC3)C2)CC1 | Not met

Please examine the following record next.
Q: Does the reported Ki of "CCS(=O)(=O)n1c2c(c3cc(C(=O)N4CCC(C)CC4)ccc31)CN(CC1CCCCC1)C2" stay below 80 nM?
Result: Not met

====

Species on record: Homo sapiens
Test: Selectivity for human CB2 receptor over human CB1 receptor
METRIC: Ratio Ki

CCCS(=O)(=O)n1c2c(c3cc(C(=O)N4CCC(C)CC4)ccc31)CN(C1CCCC1)C2 | 8.7
CC1CCN(C(=O)c2ccc3c(c2)c2c(n3S(=O)(=O)C3CC3)CN(C3CCCC3)C2)CC1 | 14.6
CC1CCN(C(=O)c2ccc3c(c2)c2c(n3S(C)(=O)=O)CN(C3CCCC3)C2)CC1 | 35.3
CCS(=O)(=O)n1c2c(c3cc(C(=O)N4CCOCC4)ccc31)CN(C1CCCC1)C2 | > 25
CC1CCN(C(=O)c2ccc3c(c2)c2c(n3C)CN(C3CCCC3)C2)CC1 | 21.4
CCS(=O)(=O)n1c2c(c3cc(C(=O)N4CCC(C)CC4)ccc31)CN(C1CCCCO1)C2 (centres undefined) | 351
CCS(=O)(=O)n1c2c(c3cc(C(=O)N4CCC(C)CC4)ccc31)CN(CC1CCCCC1)C2 | 0.4
C=CCn1c2c(c3cc(C(=O)N4CCC(C)CC4)ccc31)CN(C1CCCC1)C2 | 29.8

Here is another molecule to look at.
Q: # return recorded Ratio Ki for input "CCS(=O)(=O)n1c2c(c3cc(C(=O)N4CCC(C)CC4)ccc31)CN(C1CCOCC1)C2"
Result: 14

====

Entries and their measured Ratio Ki follow.
Organism: Homo sapiens
Assay: Selectivity for human CB2 receptor over human CB1 receptor
Just the number, please, no unit after it.

CCS(=O)(=O)n1c2c(c3cc(C(=O)N4CCC(C)CC4)ccc31)CN(C(C)C)C2 | 47
CCCCN1Cc2c(n(S(=O)(=O)CC)c3ccc(C(=O)N4CCC(C)CC4)cc23)C1 | 20.3
CCS(=O)(=O)n1c2c(c3cc(C(=O)N(C)CCC(C)C)ccc31)CN(C1CCCC1)C2 | 38.7
CC1CCN(C(=O)c2ccc3c(c2)c2c(n3S(=O)(=O)C(C)C)CN(C3CCCC3)C2)CC1 | 35.7
CC1CCN(C(=O)c2ccc3c(c2)c2c(n3Cc3ccccc3)CN(C3CCCC3)C2)CC1 | 6.2
CCCN1Cc2c(n(S(=O)(=O)CC)c3ccc(C(=O)N4CCC(C)CC4)cc23)C1 | 54.4

Q: Read the entry "CCS(=O)(=O)n1c2c(c3cc(C(=O)N(C)C(C)C)ccc31)CN(C1CCCC1)C2" and write its reported Ratio Ki.
Result: 67.5

====

Biological target: Cannabinoid receptor 2 (Homo sapiens, UniProt P34972)
Test: Binding affinity to human CB2 receptor
METRIC: log10 of Ki (log10 of the value in nM)
Quick note: numbers are log10 of Ki, with nM as the unit.

Q: Name the recorded log10 of Ki of the compound listed here: "CCS(=O)(=O)n1c2c(c3cc(C(=O)N4CCC(C)CC4)ccc31)CN(CCC1CCCCC1)C2"
Result: 3.30

Q: Give the reported log10 of Ki for this compound. "CC1CCN(C(=O)c2ccc3c(c2)c2c(n3S(=O)(=O)C3CC3)CN(C3CCCC3)C2)CC1"
Result: 0.97

Q: State its log10 of Ki for this compound: "CCS(=O)(=O)n1c2c(c3cc(C(=O)N4CCC(C)CC4)ccc31)CN(C1CCCC1)C2"
Result: 0.85

Q: Determine its reported log10 of Ki: "CCS(=O)(=O)n1c2c(c3cc(C(=O)N4CCC(F)CC4)ccc31)CN(C1CCCC1)C2"
Result: 1.65

Q: Answer with reported log10 of Ki of "CC1CCN(C(=O)c2ccc3c(c2)c2c(n3Cc3ccccc3)CN(C3CCCC3)C2)CC1"
Result: 2.03

====

Target: Cannabinoid receptor 2 (Homo sapiens)
Test: Agonist activity at human CB2 receptor by GTPgamma[35S] assay relative to WIN-55212-2
Type: functional
METRIC: Emax (%)
Record the value in %, omitting the unit from your answer.

CCS(=O)(=O)n1c2c(c3cc(C(=O)N4CCCCC4)ccc31)CN(C1CCCC1)C2 | 107
CC1CCN(C(=O)c2ccc3c(c2)c2c(n3S(=O)(=O)C(C)C)CN(C3CCCC3)C2)CC1 | 105
CCCN1Cc2c(n(S(=O)(=O)CC)c3ccc(C(=O)N4CCC(C)CC4)cc23)C1 | 104
CCCCN(C)C(=O)c1ccc2c(c1)c1c(n2S(=O)(=O)CC)CN(C2CCCC2)C1 | 111
CC1CCN(C(=O)c2ccc3c(c2)c2c(n3S(=O)(=O)C3CC3)CN(C3CCCC3)C2)CC1 | 101

Q: Please give measured Emax of the following entry: "CCCCN1Cc2c(n(S(=O)(=O)CC)c3ccc(C(=O)N4CCC(C)CC4)cc23)C1"
Result: 105

Q: Given "CCS(=O)(=O)n1c2c(c3cc(C(=O)N4CCC(C)CC4)ccc31)CN(C(C)C)C2" , respond with its Emax.
Result: 101

Q: Tell me its Emax given "CC1CCN(C(=O)c2ccc3c(c2)c2c(n3S(=O)(=O)c3ccccc3)CN(C3CCCC3)C2)CC1" as the entry.
Result: -62

Q: Specify measured Emax for "CC1CCN(C(=O)c2ccc3c(c2)c2c(n3S(C)(=O)=O)CN(C3CCCC3)C2)CC1" .
Result: 105

Q: Determine its reported Emax: "CCCCCc1cc(O)c2c(c1)CC(C)(C)[C@@H]1CCC(C)=C[C@@H]21"
Result: 64

Q: Look up and report measured Emax for this entry: "CCCS(=O)(=O)n1c2c(c3cc(C(=O)N4CCC(C)CC4)ccc31)CN(C1CCCC1)C2"
Result: 90

Q: For the compound "C=CCN1Cc2c(n(S(=O)(=O)CC)c3ccc(C(=O)N4CCC(C)CC4)cc23)C1" , give its reported Emax.
Result: 104

Q: Please list Emax recorded for the compound "C=CCn1c2c(c3cc(C(=O)N4CCC(C)CC4)ccc31)CN(C1CCCC1)C2"
Result: 92

Q: Note Emax for the compound shown: CCS(=O)(=O)n1c2c(c3cc(C(=O)N4CCC(C)CC4)ccc31)CN(C1CCCCO1)C2 (stereo not given)
Result: 107

Q: Please supply the value of reported Emax for the item "CCS(=O)(=O)n1c2c(c3cc(C(=O)N4CCC(C)CC4)ccc31)CN(C1CCCC1)C2"
Result: 110

====

Target: Cannabinoid receptor 2 (Homo sapiens)
Assay: Binding affinity to human CB2 receptor
List of pKi values.
The read-out pKi is expressed as -log10 of concentration in moles per litre.

CCS(=O)(=O)n1c2c(c3cc(C(=O)N4CCC(C)CC4)ccc31)CN(Cc1ccccc1)C2 | 7.43
CC1CCN(C(=O)c2ccc3c(c2)c2c(n3S(=O)(=O)C(C)C)CN(C3CCCC3)C2)CC1 | 8.38
CC(=O)n1c2c(c3cc(C(=O)N4CCC(C)CC4)ccc31)CN(C1CCCC1)C2 | 7.06

Q: Write down measured pKi (Cannabinoid receptor 2 (Homo sapiens)) for this compound. "CCCCCc1cc(O)c2c(c1)CC(C)(C)[C@@H]1CCC(C)=C[C@@H]21"
Result: 6.85

Q: Would you please give the reported pKi of "CCCCN1Cc2c(n(S(=O)(=O)CC)c3ccc(C(=O)N4CCC(C)CC4)cc23)C1" with Cannabinoid receptor 2 (Homo sapiens)?
Result: 7.77

Q: Give the observed pKi of "CCS(=O)(=O)n1c2c(c3cc(C(=O)N4CCC(OC)CC4)ccc31)CN(C1CCCC1)C2" for Cannabinoid receptor 2 (Homo sapiens).
Result: 7.56

====

Biological target: Cannabinoid receptor 2 (Homo sapiens)
Test: Agonist activity at human CB2 receptor by GTPgamma[35S] assay
Each item that follows carries a reported EC50.

Q: Answer with reported EC50 of "CCCN1Cc2c(n(S(=O)(=O)CC)c3ccc(C(=O)N4CCC(C)CC4)cc23)C1"
Result: 0.8 nM

Q: Hello, please tell me recorded EC50 for this one: "CCS(=O)(=O)n1c2c(c3cc(C(=O)N4CCC(C)CC4)ccc31)CN(C1CCCC1)C2"
Result: 0.8 nM

Q: Please supply the value of reported EC50 for the item "C=CCn1c2c(c3cc(C(=O)N4CCC(C)CC4)ccc31)CN(C1CCCC1)C2"
Result: 5 nM

Q: Using the record for "CC1CCN(C(=O)c2ccc3c(c2)c2c(n3S(=O)(=O)c3ccccc3)CN(C3CCCC3)C2)CC1" , state its measured EC50.
Result: 15.6 nM

Q: Answer with the recorded EC50 of "CCS(=O)(=O)n1c2c(c3cc(C(=O)N4CCCCC4)ccc31)CN(C1CCCC1)C2" only.
Result: 1.7 nM

Q: Entry CCS(=O)(=O)n1c2c(c3cc(C(=O)N4CCC(C)CC4)ccc31)CN(C1CCCCO1)C2 (stereo not drawn) needs its EC50 filled in; supply it.
Result: 1.7 nM

Q: Tell us which EC50 value is on record for "CCCCN(C)C(=O)c1ccc2c(c1)c1c(n2S(=O)(=O)CC)CN(C2CCCC2)C1"
Result: 4 nM

Q: For the compound "CCCS(=O)(=O)n1c2c(c3cc(C(=O)N4CCC(C)CC4)ccc31)CN(C1CCCC1)C2" , give its reported EC50.
Result: 6.7 nM
